Target: Delta-type opioid receptor (Homo sapiens, UniProt P41143)
Sequence (P41143 whole entry): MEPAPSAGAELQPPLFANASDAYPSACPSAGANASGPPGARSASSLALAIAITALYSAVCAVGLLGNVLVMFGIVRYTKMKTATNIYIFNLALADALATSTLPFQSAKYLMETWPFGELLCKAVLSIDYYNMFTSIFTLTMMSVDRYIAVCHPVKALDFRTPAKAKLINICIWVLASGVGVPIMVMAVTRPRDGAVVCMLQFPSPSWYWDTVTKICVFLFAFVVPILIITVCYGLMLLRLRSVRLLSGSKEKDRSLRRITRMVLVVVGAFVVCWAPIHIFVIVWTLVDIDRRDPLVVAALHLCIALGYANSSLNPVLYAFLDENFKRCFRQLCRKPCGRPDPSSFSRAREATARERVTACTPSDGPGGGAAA
Experiment: Displacement of [3H]-DPDPE from human delta opiod receptor expressed in human HEK293 cells at 10 uM incubated for 60 mins by liquid scintillation counting method relative to control
Format: cell-based
Parameter measured: inhibition (%)

Some compounds with known inhibition results, for comparison:
[ask] Data request, read-out inhibition, for COc1ccc(C2CCCN2Cc2ccc(Oc3ccc4c(=O)[nH]oc4c3)cc2)cc1 (stereo not drawn)
[reply] 40.7

[ask] Ok, now Cc1cc(C)cc(C2CCCN2Cc2ccc(Oc3ccc4c(=O)[nH]oc4c3)c(F)c2)c1 (stereo not drawn)
[reply] 10.7

[ask] Ok, now Cc1cc(C)cc(C2CCCN2Cc2ccc(Oc3ccc4c(=O)[nH]oc4c3F)c(F)c2)c1 (stereo not drawn)
[reply] 49.3

[ask] Ok, now O=C(NO)c1ccc(Oc2ccc(CN3CCCC3c3cccc(F)c3)cc2)c(F)c1 (stereo not drawn)
[reply] 28.4

[ask] Ok, now Cc1cc(C)cc(C2CCCN2Cc2ccc(Oc3ccc(C(=O)NO)cc3)cc2)c1 (stereo not drawn)
[reply] 6.5

[ask] Ok, now COc1ccc(C2CCCN2Cc2ccc(Oc3ccc4c(=O)[nH]oc4c3F)cc2)cc1 (stereo not drawn)
[reply] 49.7

A: Cc1cc(C)cc(C2CCCN2Cc2ccc(Oc3ccc4c(=O)[nH]oc4c3)cc2)c1 (stereo not drawn)
B: O=C(NO)c1ccc(Oc2ccc(CN3CCCC3c3ccc(Cl)cc3)cc2)c(F)c1 (stereo not drawn)
[ask] Compare inhibition: is it lower for A or for B ? Could you answer with the label of the item you picked?
[reply] B
(B: 34.4%, A: 54.8%)

----------
Molecular target: Delta-type opioid receptor (Homo sapiens)
Test: Displacement of [3H]-DPDPE from human delta opiod receptor expressed in human HEK293 cells at 1 uM incubated for 60 mins by liquid scintillation counting method relative to control
Format: cell-based
Parameter measured: inhibition (%)

Some compounds with known inhibition results, for comparison:
[ask] Give Delta-type opioid receptor (Homo sapiens) inhibition for Cc1cc(C)cc(C2CCCN2Cc2ccc(Oc3ccc4c(=O)[nH]oc4c3)c(F)c2)c1 (centres undefined)
[reply] 0

[ask] Ok, now Cc1cc(C)cc(C2CCCN2Cc2ccc(Oc3ccc4c(=O)[nH]oc4c3F)c(F)c2)c1 (centres undefined)
[reply] 17.2

[ask] Ok, now O=C(NO)c1ccc(Oc2ccc(CN3CCCC3c3cccc(F)c3)cc2)c(F)c1 (centres undefined)
[reply] 16.8

[ask] Ok, now COc1cc(CN2CCCC2c2cc(C)cc(C)c2)ccc1Oc1ccc2c(=O)[nH]oc2c1 (centres undefined)
[reply] 11.6

[ask] Ok, now COc1ccc(C2CCCN2Cc2ccc(Oc3ccc4c(=O)[nH]oc4c3Cl)cc2)cc1 (centres undefined)
[reply] 18

[ask] Ok, now Cc1cc(C)cc(C2CCCN2Cc2ccc(Oc3ccc4c(=O)[nH]oc4c3F)c(Cl)c2)c1 (centres undefined)
[reply] 18

P: O=c1[nH]oc2c(F)c(Oc3ccc(CN4CCCC4c4ccc(Cl)cc4)cc3)ccc12 (centres undefined)
Q: O=C(NO)c1ccc(Oc2ccc(CN3CCCC3c3ccc(Cl)cc3)cc2)c(F)c1 (centres undefined)
[ask] Compare inhibition: is it lower for P or for Q ? Could you answer with the label of the item you picked?
[reply] P
(P: 0%, Q: 25.6%)

1: O=C(NO)c1ccc(Oc2ccc(CN3CCCC3c3cccc(Cl)c3)cc2)c(F)c1 (centres undefined)
2: COc1ccc(C2CCCN2Cc2ccc(Oc3ccc4c(=O)[nH]oc4c3F)cc2)cc1 (centres undefined)
3: O=c1[nH]oc2c(Cl)c(Oc3ccc(CN4CCCC4c4cccc(F)c4)cc3)ccc12 (centres undefined)
4: COc1ccc(C2CCCN2Cc2ccc(Oc3ccc(C(=O)NO)cc3)cc2)cc1 (centres undefined)
5: O=c1[nH]oc2cc(Oc3ccc(CN4CCCC4c4ccc(Cl)cc4)cc3)ccc12 (centres undefined)
[ask] Reorder: inhibition, max to min. Record the ranking as a list of labels in the requested order.
[reply] 2, 5, 3, 4, 1
(2: 23.7%, 5: 15.7%, 3: 8.5%, 4: 3.9%, 1: 0%)

A: Cc1cc(C)cc(C2CCCN2Cc2ccc(Oc3ccc4c(=O)[nH]oc4c3Cl)cc2)c1 (centres undefined)
B: COc1ccc(C2CCCN2Cc2ccc(Oc3ccc4c(=O)[nH]oc4c3)cc2)cc1 (centres undefined)
[ask] Param pair: A , B . Output: the one whose inhibition is numerically greater. Could you answer with the label of the item you picked?
[reply] B
(B: 33.3%, A: 0%)
